# tested_target: T1, CD163 (human, on CD163 overexpressing U87 cells and in human carotid endarterectomy tissue) (human, UniProt Q86VB7 42-1156)
# T1 construct: whole, on cells; also called CD163 receptor; human CD163
# T1 sequence (Q86VB7 42-1156): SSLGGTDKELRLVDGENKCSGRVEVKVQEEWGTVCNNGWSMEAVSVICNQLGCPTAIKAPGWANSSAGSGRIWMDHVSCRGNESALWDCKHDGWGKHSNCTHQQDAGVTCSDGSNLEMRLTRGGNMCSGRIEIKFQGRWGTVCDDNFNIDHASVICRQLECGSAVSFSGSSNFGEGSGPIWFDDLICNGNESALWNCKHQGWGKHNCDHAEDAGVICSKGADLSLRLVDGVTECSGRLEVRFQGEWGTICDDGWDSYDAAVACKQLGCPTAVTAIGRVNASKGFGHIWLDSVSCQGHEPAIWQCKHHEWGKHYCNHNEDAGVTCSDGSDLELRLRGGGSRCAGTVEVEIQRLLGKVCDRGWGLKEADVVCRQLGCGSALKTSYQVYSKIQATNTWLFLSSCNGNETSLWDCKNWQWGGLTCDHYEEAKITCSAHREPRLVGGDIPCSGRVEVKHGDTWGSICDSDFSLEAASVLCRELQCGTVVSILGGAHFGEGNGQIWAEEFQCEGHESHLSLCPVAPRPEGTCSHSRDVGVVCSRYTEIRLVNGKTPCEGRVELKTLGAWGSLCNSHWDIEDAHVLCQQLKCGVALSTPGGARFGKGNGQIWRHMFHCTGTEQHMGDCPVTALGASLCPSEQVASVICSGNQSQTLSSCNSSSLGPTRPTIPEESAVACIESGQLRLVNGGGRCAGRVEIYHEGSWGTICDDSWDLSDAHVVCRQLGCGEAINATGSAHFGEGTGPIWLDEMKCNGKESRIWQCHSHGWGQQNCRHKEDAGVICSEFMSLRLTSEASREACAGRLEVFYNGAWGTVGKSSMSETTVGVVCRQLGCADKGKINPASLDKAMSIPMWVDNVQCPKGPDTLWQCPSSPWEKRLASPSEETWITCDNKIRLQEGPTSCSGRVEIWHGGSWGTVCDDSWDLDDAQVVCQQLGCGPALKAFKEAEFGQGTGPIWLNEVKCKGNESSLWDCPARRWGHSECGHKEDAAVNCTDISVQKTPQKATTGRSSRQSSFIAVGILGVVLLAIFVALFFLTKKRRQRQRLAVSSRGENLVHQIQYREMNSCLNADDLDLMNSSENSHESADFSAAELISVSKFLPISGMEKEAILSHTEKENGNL
# method_summary: competitive cell binding on CD163 overexpressing U87 cells; 37 kBq ^64Cu-ICT-01 with non-radioactive ICT-01 at 10^-5-10^-10 M, gamma counting
Ends that are not written are not given here.
readout_name: pIC50
The scale used: pIC50 is minus the common logarithm of the concentration in molar units.

Query WFWNHGWQWSSK (not fully specified, also called non-radioactive ICT-01; CD163 targeting peptide ICT-01) [ICT-01 (non-radioactive)] yields pIC50 of 7.84
